Hi there, I'd appreciate the recorded % CROSS-REACTIVITY for every entry that follows.
Test system: anti-testosterone serum from rabbit No. X-181
Experiment: Cross-reactivity of structurally similar steroids with the anti-testosterone serum
Format: binding
Details: antiserum of rabbit X-181; testosterone = 100
Reply with just the number (in %).

Test system anti-testosterone serum from rabbit No. X-181; read-out % CROSS-REACTIVITY; what value for C[C@]12CC[C@H]3[C@@H](C[C@H](O)C4=CC(=O)CC[C@@]43C)[C@@H]1CC[C@@H]2O [6α-Hydroxytestosterone] ? 0.75

Test system anti-testosterone serum from rabbit No. X-181; read-out % CROSS-REACTIVITY; what value for C[C@]12CCC(=O)C[C@H]1CC[C@@H]1[C@@H]2CC[C@]2(C)C(=O)CC[C@@H]12 [5β-Androstane-3,17-dione] ? 0.00

Test system anti-testosterone serum from rabbit No. X-181; read-out % CROSS-REACTIVITY; what value for C[C@]12C[C@H](O)[C@H]3[C@@H](CCC4=CC(=O)CC[C@@]43C)[C@@H]1CC[C@@H]2O [11β-Hydroxytestosterone] ? 0.00

Test system anti-testosterone serum from rabbit No. X-181; read-out % CROSS-REACTIVITY; what value for C[C@]12CC[C@H](O)C[C@@H]1CC[C@@H]1[C@@H]2CC[C@]2(C)[C@@H](O)CC[C@@H]12 [5α-Androstane-3β,17β-diol] ? 2.19

Test system anti-testosterone serum from rabbit No. X-181; read-out % CROSS-REACTIVITY; what value for C[C@]12CC[C@H]3[C@@H](CCC4=CC(=O)CC[C@@]43C)[C@@H]1CC[C@@H]2C(=O)CO [Deoxycorticosterone] ? 0.00

Test system anti-testosterone serum from rabbit No. X-181; read-out % CROSS-REACTIVITY; what value for C[C@]12CC(=O)[C@H]3[C@@H](CCC4=CC(=O)CC[C@@]43C)[C@@H]1CC[C@@H]2O [11β-Oxotestosterone] ? 1.80

Test system anti-testosterone serum from rabbit No. X-181; read-out % CROSS-REACTIVITY; what value for C[C@]12CCC(=O)C[C@@H]1CC[C@@H]1[C@@H]2CC[C@]2(C)[C@@H](O)CC[C@@H]12 [5α-Dihydrotestosterone] ? 6.65

Test system anti-testosterone serum from rabbit No. X-181; read-out % CROSS-REACTIVITY; what value for C[C@]12CCC(=O)C=C1CC[C@@H]1[C@@H]2[C@@H](O)C[C@]2(C)C(=O)CC[C@@H]12 [11β-Hydroxyandrostenodione] ? 0.00

Test system anti-testosterone serum from rabbit No. X-181; read-out % CROSS-REACTIVITY; what value for C[C@]12CC[C@H](O)C[C@@H]1CC[C@@H]1[C@@H]2CC[C@]2(C)C(=O)CC[C@@H]12 [Epiandrosterone] ? 0.19

Test system anti-testosterone serum from rabbit No. X-181; read-out % CROSS-REACTIVITY; what value for CC(=O)[C@H]1CC[C@H]2[C@@H]3CCC4=CC(=O)CC[C@]4(C)[C@H]3CC[C@]12C [Progesterone] ? 0.00

Test system anti-testosterone serum from rabbit No. X-181; read-out % CROSS-REACTIVITY; what value for C[C@]12CCC(=O)C[C@H]1CC[C@@H]1[C@@H]2CC[C@]2(C)[C@@H](O)CC[C@@H]12 [5β-Dihydrotestosterone] ? 0.63

Test system anti-testosterone serum from rabbit No. X-181; read-out % CROSS-REACTIVITY; what value for C[C@]12CC[C@H]3[C@@H](CC=C4C[C@@H](O)CC[C@@]43C)[C@@H]1CC[C@@H]2O [5-Androstene-3β,17β-diol] ? 0.51

Test system anti-testosterone serum from rabbit No. X-181; read-out % CROSS-REACTIVITY; what value for C[C@]12CC[C@@H]3c4ccc(O)cc4CC[C@H]3[C@@H]1CC[C@@H]2O [Estradiol] ? 0.43

Test system anti-testosterone serum from rabbit No. X-181; read-out % CROSS-REACTIVITY; what value for C[C@]12CC[C@@H]3c4ccc(O)cc4CC[C@H]3[C@@H]1CCC2=O [Estrone] ? 0.00

Test system anti-testosterone serum from rabbit No. X-181; read-out % CROSS-REACTIVITY; what value for C[C@]12CC[C@@H]3c4ccc(O)cc4CC[C@H]3[C@@H]1C[C@@H](O)[C@@H]2O [Estriol] ? 0.00

Test system anti-testosterone serum from rabbit No. X-181; read-out % CROSS-REACTIVITY; what value for C[C@]12CC[C@@H](O)C[C@@H]1CC[C@@H]1[C@@H]2CC[C@]2(C)C(=O)CC[C@@H]12 [Androsterone] ? 0.00

Test system anti-testosterone serum from rabbit No. X-181; read-out % CROSS-REACTIVITY; what value for C[C@]12CC[C@@H](O)C[C@@H]1CC[C@@H]1[C@@H]2CC[C@]2(C)[C@@H](O)CC[C@@H]12 [5α-Androstane-3α, 17β-diol] ? 0.00

Test system anti-testosterone serum from rabbit No. X-181; read-out % CROSS-REACTIVITY; what value for C[C@]12CC[C@H](O)CC1=CC[C@@H]1[C@@H]2CC[C@]2(C)C(=O)CC[C@@H]12 [Dehydroepiandrosterone] ? 0.00

Test system anti-testosterone serum from rabbit No. X-181; read-out % CROSS-REACTIVITY; what value for C[C@]12CCC(=O)C=C1CC[C@@H]1[C@@H]2CC[C@]2(C)C(=O)CC[C@@H]12 [Androstenedione] ? 0.90

Test system anti-testosterone serum from rabbit No. X-181; read-out % CROSS-REACTIVITY; what value for C[C@]12C[C@H](O)[C@H]3[C@@H](CCC4=CC(=O)CC[C@@]43C)[C@@H]1CC[C@@H]2C(=O)CO [Corticosterone] ? 0.00

Test system anti-testosterone serum from rabbit No. X-181; read-out % CROSS-REACTIVITY; what value for C[C@]12CC[C@H]3[C@@H](CCC4=CC(=O)CC[C@@]43C)[C@@H]1CC[C@@H]2O [Testosterone] ? 100.00

The measurements presented in this section are drawn from patent US4197286A.
